Assay: Polymorphism: solid forms found in salt screen by HT-XRPD
Type: physicochemical
Details: Example 1 salt screen in MeOH, DME, THF
metric: Polymorphism

Reference set, count: 6
- molecule: "NC(=NCc1ccccc1)NC(=O)c1nc(Cl)c(N)nc1N [Benzamil free base]"
  Polymorphism: "Yes"
- molecule: "Cl.N/C(=N\\C(=O)c1nc(Cl)c(N)nc1N)NCc1ccccc1 [Benzamil HCl SM1, reference compound]"
  Polymorphism: "Yes"
- molecule: "CC(O)C(=O)O.NC(=NCc1ccccc1)NC(=O)c1nc(Cl)c(N)nc1N"
  Polymorphism: "No"
- molecule: "N=C(NCc1ccccc1)NC(=O)c1nc(Cl)c(N)nc1N.O=C(O)c1ccccc1 [BNZ2]"
  Polymorphism: "Yes"
- molecule: "CC(=O)O.NC(=NC(=O)c1nc(Cl)c(N)nc1N)NCc1ccccc1 [ACA2]"
  Polymorphism: "Yes"
- molecule: "NC(=NC(=O)c1nc(Cl)c(N)nc1N)NCc1ccccc1.O=P(O)(O)O"
  Polymorphism: "Yes"

Reported Polymorphism for N=C(NCc1ccccc1)NC(=O)c1nc(Cl)c(N)nc1N.O=C(O)c1ccccc1 [BNZ1] : what is it?
Yes

Reported Polymorphism for N=C(NCc1ccccc1)NC(=O)c1nc(Cl)c(N)nc1N.O=C(O)C(O)C(O)C(=O)O : what is it?
Unclear

Reported Polymorphism for NC(=NC(=O)c1nc(Cl)c(N)nc1N)NCc1ccccc1.O=[N+]([O-])O : what is it?
Yes

Reported Polymorphism for NC(=NC(=O)c1nc(Cl)c(N)nc1N)NCc1ccccc1.O=C(O)c1ccccc1 : what is it?
Yes

---

Test: Crystallinity of salt forms by HT-XRPD
Format: physicochemical
Details: salt screen solid forms
metric: Crystallinity

Reference set, count: 8
- molecule: "CCS(=O)(=O)O.NC(=NC(=O)c1nc(Cl)c(N)nc1N)NCc1ccccc1 [ESY3]"
  Crystallinity: "Poor"
- molecule: "N=C(NCc1ccccc1)NC(=O)c1nc(Cl)c(N)nc1N.O=C(O)C=CC(=O)O"
  Crystallinity: "Good"
- molecule: "NC(=NC(=O)c1nc(Cl)c(N)nc1N)NCc1ccccc1.O=C(O)c1cc(O)ccc1O [GEN3]"
  Crystallinity: "Moderate"
- molecule: "NC(=NC(=O)c1nc(Cl)c(N)nc1N)NCc1ccccc1.O=C(O)c1cc2ccccc2c(Cc2c(O)c(C(=O)O)cc3ccccc23)c1O [PAM1]"
  Crystallinity: "Obtained as mixture"
- molecule: "CCCCC(=O)O.NC(=NC(=O)c1nc(Cl)c(N)nc1N)NCc1ccccc1 [VAL2]"
  Crystallinity: "Poor"
- molecule: "NC(=NC(=O)c1nc(Cl)c(N)nc1N)NCc1ccccc1.O=C(O)CC(=O)O"
  Crystallinity: "Good"
- molecule: "N=C(NCc1ccccc1)NC(=O)c1nc(Cl)c(N)nc1N.O=C(O)c1cc(=O)[nH]c(=O)[nH]1"
  Crystallinity: "Good"
- molecule: "CCCC(=O)O.NC(=NC(=O)c1nc(Cl)c(N)nc1N)NCc1ccccc1 [BUT2]"
  Crystallinity: "Poor"

Reported Crystallinity for NC(=NC(=O)c1nc(Cl)c(N)nc1N)NCc1ccccc1.O=C(O)CC(O)(CC(=O)O)C(=O)O [CIT2] : what is it?
Good

Reported Crystallinity for Br.Br.NC(=NC(=O)c1nc(Cl)c(N)nc1N)NCc1ccccc1 : what is it?
Moderate

Reported Crystallinity for NC(=NC(=O)c1nc(Cl)c(N)nc1N)NCc1ccccc1.O=C(O)C=Cc1ccccc1 [CIN2] : what is it?
Good

Reported Crystallinity for CCCC(=O)O.NC(=NC(=O)c1nc(Cl)c(N)nc1N)NCc1ccccc1 [BUT1] : what is it?
Good

Reported Crystallinity for NC(=NC(=O)c1nc(Cl)c(N)nc1N)NCc1ccccc1.O=C(O)c1cc(=O)[nH]c(=O)[nH]1 : what is it?
Poor

Reported Crystallinity for CCC(=O)O.NC(=NC(=O)c1nc(Cl)c(N)nc1N)NCc1ccccc1 [PRO4] : what is it?
Obtained as mixture
